System: MCF-7
procedure.details: MTT cell viability assay, MCF-7
Assay type: cell-based
protocol.conditions: Homo sapiens, MCF7; MTT, 72-hour incubation; read-out: IC50/μM MCF-7
outcome.measure: IC50 (µM)
Give the number; µM is assumed, so skip it.

The recorded IC50 for entry CCn1c(=O)/c(=C2\Sc3ccc(C)cc3N2C)s/c1=C\c1scc[n+]1Cc1ccccc1Cl [JG-365] equals 0.11

The recorded IC50 for entry CCn1c(=O)/c(=C2\Sc3cc(Br)ccc3N2C)s/c1=C\c1scc[n+]1Cc1ccccc1C [JG-290] equals 0.16

Now look at this entry.
The recorded IC50 for entry CCn1c(=O)/c(=C2\Sc3cc(C)ccc3N2C)s/c1=C\c1scc[n+]1Cc1ccsc1C(=O)OC [JG-248] equals 0.14

----------
Test system: MCF-7
procedure.details: MTT cell viability assay, MCF-7
Assay type: cell-based
protocol.conditions: Homo sapiens, MCF7; MTT, 72-hour incubation; read-out: IC50/μM MCF-7
outcome.measure: IC50 (µM)
Give the number; µM is assumed, so skip it.

Answered examples (3):
The recorded IC50 for entry CCn1c(=O)/c(=C2\Sc3cc(C)ccc3N2C)s/c1=C\c1scc[n+]1CCc1ccccc1OC equals 0.31

The recorded IC50 for entry CCc1ccc2c(c1)S/C(=c1/s/c(=C\c3scc[n+]3Cc3ccccc3C(F)(F)F)n(CC)c1=O)N2C equals 0.052

The recorded IC50 for entry CCn1c(=O)/c(=C2\Sc3cc(F)ccc3N2C)s/c1=C\c1scc[n+]1Cc1ccccc1SC(F)(F)F equals 0.65

Now look at this entry.
The recorded IC50 for entry CCn1c(=O)/c(=C2\Sc3ccc(C)cc3N2C)s/c1=C\c1scc[n+]1Cc1ccccc1SC(F)(F)F equals 0.067

----------
Tested on: MCF-7
procedure.details: MTT cell viability assay, MCF-7
Assay type: cell-based
protocol.conditions: Homo sapiens, MCF7; MTT, 72-hour incubation; read-out: IC50/μM MCF-7
Experimental: Cells were then treated with compound at various concentrations in 0.2 mL media. After the 72-hour incubation period, cells were washed in PBS (3×100 μL), and 10 μL MTT reagent was added with 100 μL fresh media. Cells were then incubated for 4 hr in a humidified chamber at 37° C. with 5% CO2. Insoluble formazan crystals were solubilized by addition of 0.1 mL detergent solution (4 hr at room temp., dark). Resulting colored solutions were then quantified at an absorbance of 570 nm.
Catalogue of compounds with associated IC50
Give the number; µM is assumed, so skip it.

Answered examples (2):
The recorded IC50 for entry CCn1c(=O)/c(=C2\Sc3cc(SC)ccc3N2C)s/c1=C\c1scc[n+]1Cc1c(Cl)cccc1Cl equals 0.13

The recorded IC50 for entry CCn1c(=O)/c(=C2\Sc3cc(Br)ccc3N2C)s/c1=C\c1scc[n+]1C(C)c1ccccc1 (stereo not shown) equals 0.35

Continuing:
The recorded IC50 for entry CCn1c(=O)/c(=C2\Sc3cc(F)ccc3N2C)s/c1=C\c1scc[n+]1[C@@H](C)c1ccccc1 equals 0.18

The recorded IC50 for entry CCn1c(=O)/c(=C2\Sc3cc(OC)ccc3N2C)s/c1=C\c1scc[n+]1Cc1c(Cl)cccc1Cl equals 0.1

----------
System: MCF-7
procedure.details: MTT cell viability assay, MCF-7
Type: cell-based
protocol.conditions: Homo sapiens, MCF7; MTT, 72-hour incubation; read-out: IC50/μM MCF-7
Entry class follows IC50: band 1 (below 0.1 µM), band 2 (0.1 µM to below 0.2 µM), band 3 (0.2 µM or more)

Solved cases (6 shown):
INPUT: For this molecule, which bin applies? CCn1c(=O)/c(=C2\Sc3cc(Cl)ccc3N2C)s/c1=C\c1scc[n+]1Cc1csc(NC(C)=O)n1
OUTPUT: band 3

INPUT: For this molecule, which bin applies? CCn1c(=O)/c(=C2\Sc3cc(C(C)C)ccc3N2C)s/c1=C\c1scc[n+]1Cc1ccccc1C(F)(F)F
OUTPUT: band 1

INPUT: For this molecule, which bin applies? CCn1c(=O)/c(=C2\Sc3cc(F)c(F)cc3N2C)s/c1=C\c1scc[n+]1Cc1ccccc1
OUTPUT: band 3

INPUT: For this molecule, which bin applies? CCn1c(=O)/c(=C2\Sc3cc(OC)ccc3N2C)s/c1=C\c1scc[n+]1Cc1ccc(C(F)(F)F)o1
OUTPUT: band 2

INPUT: For this molecule, which bin applies? CCn1c(=O)/c(=C2\Sc3cc(OC)ccc3N2C)s/c1=C\c1scc[n+]1Cc1ccccc1SC(F)(F)F
OUTPUT: band 1

INPUT: For this molecule, which bin applies? CCn1c(=O)/c(=C2\Sc3cc(C)ccc3N2C)s/c1=C\c1scc[n+]1Cc1ccccc1Cl
OUTPUT: band 1

Continuing:
INPUT: For this molecule, which bin applies? CCn1c(=O)/c(=C2\Sc3cc(C)ccc3N2C)s/c1=C\c1scc[n+]1C(C)c1ccccc1 (stereo not shown)
OUTPUT: band 2

INPUT: For this molecule, which bin applies? CCn1c(=O)/c(=C2\Sc3cc(F)ccc3N2C)s/c1=C\c1scc[n+]1Cc1c(Cl)cccc1Cl
OUTPUT: band 2

INPUT: For this molecule, which bin applies? CCn1c(=O)/c(=C2\Sc3cc(SC)ccc3N2C)s/c1=C\c1scc[n+]1Cc1ccccc1SC(F)(F)F.[Cl-]
OUTPUT: band 1

INPUT: For this molecule, which bin applies? CCc1ccc2c(c1)S/C(=c1/s/c(=C\c3scc[n+]3Cc3ccsc3C(=O)OC)n(CC)c1=O)N2C
OUTPUT: band 1

INPUT: For this molecule, which bin applies? CCn1c(=O)/c(=C2\Sc3cc(SC)ccc3N2C)s/c1=C\c1scc[n+]1Cc1cc(C)sc1C
OUTPUT: band 3

INPUT: For this molecule, which bin applies? CCn1c(=O)/c(=C2\Sc3cc(C(C)C)ccc3N2C)s/c1=C\c1scc[n+]1Cc1ccccc1Cl
OUTPUT: band 2

INPUT: For this molecule, which bin applies? CCc1ccc2c(c1)S/C(=c1/s/c(=C\c3scc[n+]3Cc3c(C)cccc3C)n(CC)c1=O)N2C
OUTPUT: band 3

INPUT: For this molecule, which bin applies? CCn1c(=O)/c(=C2\Sc3cc(F)ccc3N2C)s/c1=C\c1scc[n+]1Cc1ccccc1OC
OUTPUT: band 3

INPUT: For this molecule, which bin applies? CCn1c(=O)/c(=C2\Sc3ccc(C)cc3N2C)s/c1=C\c1scc[n+]1Cc1ccccc1C(=O)OC
OUTPUT: band 2

INPUT: For this molecule, which bin applies? CCn1c(=O)/c(=C2\Sc3cc(Cl)ccc3N2C)s/c1=C\c1scc[n+]1Cc1ccnc(Cl)c1
OUTPUT: band 3

INPUT: For this molecule, which bin applies? CCn1c(=O)/c(=C2\Sc3cc([N+](=O)[O-])ccc3N2C)s/c1=C\c1scc[n+]1Cc1ccccc1
OUTPUT: band 3

INPUT: For this molecule, which bin applies? CCn1c(=O)/c(=C2\Sc3cc(Cl)ccc3N2C)s/c1=C\c1scc[n+]1CCc1ccccc1
OUTPUT: band 2

INPUT: For this molecule, which bin applies? CCn1c(=O)/c(=C2\Sc3cc(F)ccc3N2C)s/c1=C\c1scc[n+]1Cc1occc1C(=O)OC
OUTPUT: band 3
